Source: the RNAGym collection of RNA variant scans (doi:10.7554/elife.80360)

B1: HDV Ribozyme (parent)
chain: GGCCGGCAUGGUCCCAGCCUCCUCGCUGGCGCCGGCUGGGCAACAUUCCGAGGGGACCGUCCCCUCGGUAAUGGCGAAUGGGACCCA

# Variants of: B1
# Assay explanation: self-cleavage, relative activity (ratio to wild type); higher = more cleavage; co-transcriptional
Catalogue of self-cleavage values
Could you respond with only the numeric value?

Record excerpt, results attached:
>>> df
         mut  readout_label  measured
0  C26G U72A  self-cleavage     0.615
1   A8G A16C  self-cleavage     0.639
2  G55U G81C  self-cleavage     0.106
3   G2C G82C  self-cleavage    0.0272
4  A56G C63A  self-cleavage     0.831
5   G6A C41U  self-cleavage     0.431

Request: // returns reported self-cleavage for input G5U C75U
Result: 0.0573

Request: // returns reported self-cleavage for input C3A C13U
Result: 0.213

Request: // returns reported self-cleavage for input C18G A87G
Result: 0.12

Request: // returns reported self-cleavage for input A42G G82A
Result: 0.158

Request: // returns reported self-cleavage for input C19G C86A
Result: 0

Request: // returns reported self-cleavage for input U20G A51C
Result: 0.332
